assayRemarks: Plasma concentration was determined in rats at 2 mg/kg, i.v. dose
Type: ADME, organism-based
Design: dose 2 mg/kg, route intravenous
reportedConditions: rat, iv
attributeMeasured: AUC (µM·h)
Provide the reading as a plain figure in µM·h.

Req: So what does the record say about AUC for CCOc1ccc(-n2c(C)c3c(C)nnc(C)c3c2C)cc1 ?
Resp: 6.4

* * *

assayRemarks: Half-life period was determined in rats at 10 mg/kg, p.o. dose
Type: ADME, organism-based
Parameters: dose 10 mg/kg, route oral
reportedConditions: rat, in vivo, po
attributeMeasured: half-life (h)
Provide the reading as a plain figure in h.

Req: So what does the record say about half-life for CCOc1ccc(-n2c(C)c3c(C)nnc(C)c3c2C)cc1 ?
Resp: 4.5
